Below, each of the compounds is paired with its reported MIC value.
system: Mycobacterium tuberculosis H37Ra; experiment: Antimycobacterial screening (microdilution broth, resazurin) against M. tuberculosis H37Ra; format: cell-based; settings: Mycobacterium tuberculosis, H37RA, read-out: MIC Mtb H37Ra (µM)
observedProperty: MIC

1. COc1ccc2c3c1O[C@H]1C[C@@H](O)C=C[C@@]31CCN(C)C2 [galanthamine (1), galanthamine, reference compound]
≥ 1740 µM
2. O=C(O)c1cn(C2CC2)c2cc(N3CCNCC3)c(F)cc2c1=O [ciprofloxacin, reference compound]
0.75 µM
3. COC1C=CC23c4cc5c(cc4CN(CC2O)C3C1)OCO5 (stereo not shown) [haemanthamine (2), haemanthamine]
≥ 1660 µM
4. COC1CC2C(=CC1OC(=O)c1cccc3ccccc13)C1CN2Cc2cc3c(cc21)OCO3 (stereo not shown) [3f, 2-O-(1-naphthoyl)-3-O-methylpancracine]
7.9 µM
5. COc1cc2c(cc1OC)[C@@H]1[C@H](O)[C@@H](OC)C=C3CCN(C2)[C@H]31 [galanthine (6), galanthine]
788 µM
6. COc1ccc2c3c1O[C@H]1C[C@@H](OC(=O)c4cc(C)cc(C)c4)C=C[C@@]31CCN(C)C2 [1f, 6-O-(3,5-dimethylbenzoyl)galanthamine]
17.1 µM
7. CO[C@H]1C=C2[C@H]3C[N@@](Cc4cc5c(cc43)OCO5)[C@H]2C[C@@H]1O [montanine (8), montanine]
≥ 1660 µM

* * *

system: Mycobacterium smegmatis DSM 43465 (ATCC 607); test: Antimycobacterial screening (microdilution broth, resazurin) against M. smegmatis; type: cell-based; details: Mycolicibacterium smegmatis; resazurin added after 48 h; read-out: MIC M. smegmatis
Below, each of the compounds is paired with its reported MIC value.
observedProperty: MIC (µg/mL)

1) CO[C@H]1/C=C/O[C@@]2(C)Oc3c(C)c(O)c4c(O)c(c(/C=N/N5CCN(C)CC5)c(O)c4c3C2=O)NC(=O)/C(C)=C\C=C\[C@H](C)[C@H](O)[C@@H](C)[C@@H](O)[C@@H](C)[C@H](OC(C)=O)[C@@H]1C [rifampicin, reference compound]
6.25
2) O=C(O)c1cn(C2CC2)c2cc(N3CCNCC3)c(F)cc2c1=O [ciprofloxacin, reference compound]
0.125
3) NNC(=O)c1ccncc1 [isoniazid, reference compound]
31.2

* * *

system: Mycobacterium aurum DSM 43999 (ATCC 23366); experiment: Antimycobacterial screening (microdilution broth, resazurin) against M. aurum; type: cell-based; settings: Mycolicibacterium aurum, 72 h, read-out: MIC M. aurum
observedProperty: MIC (µg/mL)

1. COc1cc2c(cc1OC)[C@@]13C=C[C@@H](OC(=O)c4cccc5ccccc45)C[C@@H]1N(CC3)C2
7.81
2. COc1ccc2c3c1O[C@H]1C[C@@H](OC(=O)c4ccco4)C=C[C@@]31CCN(C)C2
250
3. O=C(O[C@@H]1C=C[C@]23CCN(Cc4cc5c(cc42)OCO5)[C@H]3C1)c1cccc2ccccc12
3.91
4. COc1ccc2c3c1O[C@H]1C[C@@H](OC(=O)c4ccc(C)cc4)C=C[C@@]31CCN(C)C2
15.6
5. COC1CC2C(=CC1OC(=O)c1cccc3ccccc13)C1CN2Cc2cc3c(cc21)OCO3 (centres unmarked)
3.91
6. NNC(=O)c1ccncc1 [isoniazid, reference compound]
3.91
7. CCOc1cc(OCC)cc(C(=O)O[C@H]2C=C[C@@]34CCN(C)Cc5ccc(OC)c(c53)O[C@H]4C2)c1
7.81
8. COc1cc2c(cc1OC)[C@@]13C=C[C@@H](OC(=O)c4cc(C)cc(C)c4)C[C@@H]1N(CC3)C2
15.6
9. COC1CC2C(=CC1OC(=O)c1ccc3ccccc3c1)C1CN2Cc2cc3c(cc21)OCO3 (centres unmarked)
15.6
10. O=C(O[C@@H]1C=C[C@]23CCN(Cc4cc5c(cc42)OCO5)[C@H]3C1)c1ccc2ccccc2c1
3.91
11. COc1cc(OC)cc(C(=O)O[C@H]2C=C[C@@]34CCN(C)Cc5ccc(OC)c(c53)O[C@H]4C2)c1
31.2
12. COc1ccc2c3c1O[C@H]1C[C@@H](OC(=O)c4cccc(C)c4C)C=C[C@@]31CCN(C)C2
15.6
13. CCCCc1ccc(C(=O)OC2C=C3C4CN(Cc5cc6c(cc54)OCO6)C3CC2OC)cc1 (centres unmarked)
7.81
14. COc1ccc2c3c1O[C@H]1C[C@@H](OC(=O)c4ccc5ccccc5c4)C=C[C@@]31CCN(C)C2
3.91
15. COc1ccc2c3c1O[C@H]1C[C@@H](OC(=O)c4cccc(C)c4)C=C[C@@]31CCN(C)C2
15.6
16. CCOc1cc(OCC)cc(C(=O)OC2C=C3C4CN(Cc5cc6c(cc54)OCO6)C3CC2OC)c1 (centres unmarked)
7.81
17. COc1ccc2c3c1O[C@H]1C[C@@H](OC(=O)c4cccc5ccccc45)C=C[C@@]31CCN(C)C2
7.81
18. COc1ccccc1C(=O)O[C@H]1C=C[C@@]23CCN(C)Cc4ccc(OC)c(c42)O[C@H]3C1
125
19. COc1cc(C(=O)O[C@H]2C=C[C@@]34CCN(C)Cc5ccc(OC)c(c53)O[C@H]4C2)cc(OC)c1OC
125
20. COc1cc2c(cc1OC)[C@@H]1[C@H](O)[C@@H](OC)C=C3CCN(C2)[C@H]31
250
21. COc1ccc2c3c1O[C@H]1C[C@@H](OC(=O)c4c(C)cc(C)cc4C)C=C[C@@]31CCN(C)C2
15.6

// data source = paper PMC8512562
